Numbers sourced from patent US20240270762A1.

As shown below, each of these molecules has a reported MIC value.
test system: P. aeruginosa CDC-0090; assay: microbe, parasite or virus in culture; format: cell-based; conditions: Pseudomonas aeruginosa, CDC0090, read-out: Minimum inhibitory concentration, P. aeruginosa CDC-0090

Give the measured MIC for O=C(NCCCS(=O)(=O)N1CCN(C(=O)NC(C(=O)N[C@H]2Cc3ccc(F)c(C(=O)O)c3OB2O)c2cc(F)c(O)c(O)c2Cl)C1=O)c1ccc(O)cc1 (some centres unmarked)
2 to 4 µg/mL

Recall and state the measured MIC for CN(CCCN1CCN(C(=O)NC(C(=O)N[C@H]2Cc3ccc(F)c(C(=O)O)c3OB2O)c2cc(F)c(O)c(O)c2Cl)C(=O)C1=O)C(=O)c1cccc(O)c1 (some centres unmarked) .
2 to 4 µg/mL

Output measured MIC for this item: O=C(NCCN1CCN(C(=O)NC(C(=O)N[C@H]2Cc3ccc(F)c(C(=O)O)c3OB2O)c2cc(F)c(O)c(O)c2Cl)C(=O)C1=O)Nc1cccc(O)c1 (some centres unmarked)
< 1 µg/mL

State, in one line, measured MIC of O=C(NCCCN1CCN(C(=O)NC(C(=O)N[C@H]2Cc3ccc(F)c(C(=O)O)c3OB2O)c2cc(F)c(O)c(O)c2Cl)C(=O)C1=O)Nc1cccc(O)c1 (some centres unmarked)
< 1 µg/mL

Identify measured MIC corresponding to O=C(O)c1c(F)ccc2c1OB(O)[C@@H](NC(=O)[C@H](NC(=O)N1CCN(C3CCN(C(=O)c4cccc(O)c4F)CC3)C1=O)c1cc(F)c(O)c(O)c1Cl)C2 (single isomer, unassigned)
< 1 µg/mL

Complete the entry with MIC for O=C(NCCCN1CCN(C(=O)N[C@@H](C(=O)N[C@H]2Cc3ccc(F)c(C(=O)O)c3OB2O)c2cc(F)c(O)c(O)c2Cl)C(=O)C1=O)c1cccc(O)c1Cl
< 1 µg/mL

Check the records and state MIC for O=C(NCCN1CCN(C(=O)NC(C(=O)N[C@H]2Cc3ccc(F)c(C(=O)O)c3OB2O)c2cc(F)c(O)c(O)c2Cl)C1=O)c1ccc(O)cc1 (some centres unmarked)
< 1 µg/mL

Specify MIC for O=C(O)c1c(F)ccc2c1OB(O)[C@@H](NC(=O)[C@H](NC(=O)N1CCN(C3CCN(C(=O)c4ccc(O)cc4)CC3)C1=O)c1cc(F)c(O)c(O)c1Cl)C2 (single isomer, unassigned) and stop.
< 1 µg/mL

###

system: N. gonorrhoeae FA1090; assay: Liquid broth MIC in Fastidious broth; settings: Neisseria gonorrhoeae, FA1090, read-out: Minimum Inhibitory Concentration (MIC), N. gonorrhoeae FA 1090
The following compounds are shown together with reported MIC values.

Nc1ncc(C(=O)N[C@@H](C(=O)N[C@H]2Cc3cccc(C(=O)O)c3OB2O)c2ccc(P(=O)(O)O)cc2)s1 (racemic) = 1 to 2 µg/mL

Return MIC for the following compound: CN(CCN1CCN(C(=O)NC(C(=O)N[C@H]2Cc3ccc(F)c(C(=O)O)c3OB2O)c2cc(F)c(O)c(O)c2Cl)C(=O)C1=O)S(=O)(=O)c1cccc(C(N)=O)c1 (stereo partly drawn)
4 to 8 µg/mL

Please report MIC for the following compound: O=C(O)c1c(F)ccc2c1OB(O)[C@@H](NC(=O)C(NC(=O)N1CCN(Cc3ccc(O)c(O)c3Cl)C(=O)C1=O)c1ccc(P(=O)(O)O)cc1)C2 (stereo partly drawn)
< 1 µg/mL
